activity coefficient values, listed per item
- assay-comment: activity coefficient (dimensionless); of the first substance listed, at infinite dilution; xn = mol fraction of the nth substance listed
- measurement-setup: 303.15 K; 101 kPa; Liquid; Chromatography; x1 = 0
value-type: activity coefficient

• C#CCCC [1-pentyne] + CCCCCCCC[N+](C)(CCCCCCCC)CCCCCCCC.O=C(O)c1ccccc1[S-] = 0.63
• CCCCC [pentane] + CCCCCCCC[N+](C)(CCCCCCCC)CCCCCCCC.O=C(O)c1ccccc1[S-] = 1.81
• CCCCCC [hexane] + CCCCCCCC[N+](C)(CCCCCCCC)CCCCCCCC.O=C(O)c1ccccc1[S-] = 2.07
• C1CCCCCCC1 [cyclooctane] + CCCCCCCC[N+](C)(CCCCCCCC)CCCCCCCC.O=C(O)c1ccccc1[S-] = 1.57

* * *

- assay-comment: activity coefficient (dimensionless); of the first substance listed, at infinite dilution; xn = mol fraction of the nth substance listed
- measurement-setup: 313.15 K; 101 kPa; Liquid; Chromatography; x1 = 0
activity coefficient values, listed per item
value-type: activity coefficient

• C#CCCCC [1-hexyne] + CCCCCCCC[N+](C)(CCCCCCCC)CCCCCCCC.O=C(O)c1ccccc1[S-] = 0.72
• CCCCC [pentane] + CCCCCCCC[N+](C)(CCCCCCCC)CCCCCCCC.O=C(O)c1ccccc1[S-] = 1.75
• C#CCCC [1-pentyne] + CCCCCCCC[N+](C)(CCCCCCCC)CCCCCCCC.O=C(O)c1ccccc1[S-] = 0.65
• C=CCCC [1-pentene] + CCCCCCCC[N+](C)(CCCCCCCC)CCCCCCCC.O=C(O)c1ccccc1[S-] = 1.36
